Test system: velvetleaf
Test: Test B pre/postemergence velvetleaf
Assay type: in vivo, Abutilon theophrasti
Details: Preemergence, Rate 62 g/ha; scale 0 to 10 (0 no effect, 10 complete control)
result_type: Velvetleaf plant response rating
Form field (numeric): enter value without unit.

Req: Report Velvetleaf plant response rating for `CC(C)N(C(=O)n1oc(=O)n(C)c1=O)c1ccc(Cl)cc1` please.
Resp: 3

Req: Which Velvetleaf plant response rating value is on record for `CC(C)N(C(=O)n1oc(=O)n(C(C)C)c1=O)c1ccc(F)cc1F` ?
Resp: 5

Req: Velvetleaf plant response rating for `CC(C)N(C(=O)n1oc(=O)n(C(C)(C)C)c1=O)c1ccccc1` ?
Resp: 0

Req: Would you kindly share the measured Velvetleaf plant response rating for `COCCOCn1c(=O)on(C(=O)N(c2ccccc2)C(C)C)c1=O` ?
Resp: 0
